Experiment: Oral plasma levels of oxycodone conjugates in rats, ELISA
Conditions: oral 2 mg/kg
Reported % AUC by item:
Express your answer in %, writing the number without its unit.

Entry COc1ccc2c3c1O[C@H]1C(OC(=O)[C@@H](NC(=O)[C@H](Cc4ccc(O)cc4)NC(=O)[C@@H](N)CC(C)C)C(C)C)=CC[C@@]4(OC(=O)[C@@H](NC(=O)[C@H](Cc5ccc(O)cc5)NC(=O)[C@@H](N)CC(C)C)C(C)C)[C@@H](C2)N(C)CC[C@]314 [[Leu-Tyr-Val]2-OC] : reported % AUC = ?
131

Look up % AUC for this compound: COc1ccc2c3c1O[C@H]1C(OC(=O)[C@@H](NC(=O)[C@@H]4CCCN4C(=O)[C@@H](N)CCC(=O)O)C(C)C)=CC[C@@]4(OC(=O)[C@@H](NC(=O)[C@@H]5CCCN5C(=O)[C@@H](N)CCC(=O)O)C(C)C)[C@@H](C2)N(C)CC[C@]314 [[Glu-Pro-Val]2-OC]
142
